- target-entity: IKZF2 (Helios) (Homo sapiens, UniProt Q96SW2+Q9UKS7)
- Sequence (Q9UKS7 whole entry): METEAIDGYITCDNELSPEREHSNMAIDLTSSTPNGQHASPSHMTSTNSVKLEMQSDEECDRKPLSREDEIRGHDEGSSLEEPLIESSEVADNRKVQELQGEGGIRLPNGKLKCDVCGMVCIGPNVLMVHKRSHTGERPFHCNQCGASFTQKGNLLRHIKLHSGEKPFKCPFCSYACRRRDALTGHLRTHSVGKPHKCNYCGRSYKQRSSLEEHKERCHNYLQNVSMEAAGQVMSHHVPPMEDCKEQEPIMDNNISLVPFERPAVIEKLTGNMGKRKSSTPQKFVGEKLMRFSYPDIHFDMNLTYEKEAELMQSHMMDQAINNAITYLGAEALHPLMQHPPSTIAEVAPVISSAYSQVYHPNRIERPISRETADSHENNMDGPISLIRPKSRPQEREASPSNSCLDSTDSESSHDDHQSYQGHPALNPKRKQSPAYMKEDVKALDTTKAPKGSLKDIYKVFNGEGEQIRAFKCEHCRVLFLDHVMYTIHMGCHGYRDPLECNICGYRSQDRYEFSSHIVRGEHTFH
- Sequence (Q96SW2 whole entry): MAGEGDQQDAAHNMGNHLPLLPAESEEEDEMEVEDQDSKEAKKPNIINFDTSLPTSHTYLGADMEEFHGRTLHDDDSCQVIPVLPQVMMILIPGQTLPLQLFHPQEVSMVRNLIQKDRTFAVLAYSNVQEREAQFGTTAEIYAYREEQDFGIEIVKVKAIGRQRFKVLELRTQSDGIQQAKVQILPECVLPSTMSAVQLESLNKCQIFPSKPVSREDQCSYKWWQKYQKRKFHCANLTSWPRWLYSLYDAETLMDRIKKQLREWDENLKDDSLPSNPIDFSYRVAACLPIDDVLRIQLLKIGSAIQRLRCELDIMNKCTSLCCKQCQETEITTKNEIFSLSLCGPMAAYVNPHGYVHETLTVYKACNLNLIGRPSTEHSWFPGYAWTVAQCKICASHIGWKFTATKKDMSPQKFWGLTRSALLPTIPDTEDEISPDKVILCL
- Sequence (Q16531 whole entry partner): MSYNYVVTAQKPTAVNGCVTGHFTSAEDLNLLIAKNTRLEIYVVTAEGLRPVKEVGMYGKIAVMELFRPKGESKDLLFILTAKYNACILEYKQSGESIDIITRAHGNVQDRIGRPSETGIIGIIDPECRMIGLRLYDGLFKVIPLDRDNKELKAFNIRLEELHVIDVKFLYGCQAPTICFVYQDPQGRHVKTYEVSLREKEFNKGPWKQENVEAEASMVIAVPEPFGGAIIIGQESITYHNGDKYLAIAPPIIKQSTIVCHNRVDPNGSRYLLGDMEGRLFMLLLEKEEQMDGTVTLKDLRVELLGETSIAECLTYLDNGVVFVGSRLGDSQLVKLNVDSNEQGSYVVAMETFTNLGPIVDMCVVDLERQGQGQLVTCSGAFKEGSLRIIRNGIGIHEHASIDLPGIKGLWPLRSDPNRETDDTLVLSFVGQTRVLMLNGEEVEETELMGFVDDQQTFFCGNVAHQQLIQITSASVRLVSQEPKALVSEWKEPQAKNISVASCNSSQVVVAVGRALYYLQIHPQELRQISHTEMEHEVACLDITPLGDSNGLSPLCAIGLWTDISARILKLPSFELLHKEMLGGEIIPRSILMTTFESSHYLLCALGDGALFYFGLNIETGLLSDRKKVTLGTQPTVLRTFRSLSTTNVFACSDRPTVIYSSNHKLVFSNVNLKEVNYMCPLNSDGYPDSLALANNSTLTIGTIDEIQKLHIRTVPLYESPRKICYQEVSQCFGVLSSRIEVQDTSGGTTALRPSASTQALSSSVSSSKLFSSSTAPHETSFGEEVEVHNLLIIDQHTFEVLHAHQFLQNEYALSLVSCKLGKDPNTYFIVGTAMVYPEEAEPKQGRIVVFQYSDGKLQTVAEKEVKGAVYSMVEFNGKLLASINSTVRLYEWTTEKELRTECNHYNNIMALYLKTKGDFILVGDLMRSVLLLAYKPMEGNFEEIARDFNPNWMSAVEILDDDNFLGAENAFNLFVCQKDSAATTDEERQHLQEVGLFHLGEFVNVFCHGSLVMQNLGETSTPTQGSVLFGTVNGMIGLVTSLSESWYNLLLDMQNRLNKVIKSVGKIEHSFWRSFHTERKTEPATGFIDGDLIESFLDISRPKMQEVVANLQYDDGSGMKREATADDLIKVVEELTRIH
- experiment-description: Screening of DC50 (nM) and Dmax (%) using WB-IKZF2 cell line (Western blot)
- Type: cell-based
- Design: endogenous in cells
- condition-details: 6 hours
readout-type: Dmax

[[record]]
molecule = "Cc1c(C(=O)N2CCC(c3ccc4c(c3F)CN(C3CCC(=O)NC3=O)C4=O)CC2)[nH]c2cc(Cl)c(F)cc12 (stereo not shown) [Compound 113]"
measured_value = "96%"

[[record]]
molecule = "Cc1c(C(=O)N2CCC(c3cc4c(cc3F)C(=O)N(C3CCC(=O)NC3=O)C4)CC2)[nH]c2cc([N+](=O)[O-])ccc12 (stereo not shown) [Compound 93]"
measured_value = "100%"

[[record]]
molecule = "Cc1c(C(=O)N2CCC(c3ccc4c(c3)CN(C3CCC(=O)NC3=O)C4=O)CC2)[nH]c2cc(Cl)ccc12 (stereo not shown) [Compound 39]"
measured_value = "100%"

[[record]]
molecule = "COc1cc2c(C)c(C(=O)N3CCC(c4ccc5c(c4F)CN(C4CCC(=O)NC4=O)C5=O)CC3)[nH]c2cc1Cl (stereo not shown) [Compound 108]"
measured_value = "100%"

[[record]]
molecule = "Cc1c(C(=O)N2CCC(c3ccc4c(c3F)CN(C3CCC(=O)NC3=O)C4=O)CC2)[nH]c2cc([N+](=O)[O-])ccc12 (stereo not shown) [Compound 94]"
measured_value = "100%"

[[record]]
molecule = "Cc1c(C(=O)N2CCC(c3cc4c(cc3F)C(=O)N(C3CCC(=O)NC3=O)C4)CC2)[nH]c2cc(Cl)c(F)cc12 (stereo not shown) [Compound 112]"
measured_value = "98%"

[[record]]
molecule = "Cc1c(C(=O)N2CCC(c3ccc4c(c3)CN(C3CCC(=O)NC3=O)C4=O)CC2)[nH]c2cc(Cl)c(F)cc12 (stereo not shown) [Compound 102]"
measured_value = "100%"

[[record]]
molecule = "COc1cc2c(C)c(C(=O)N3CCC(c4ccc5c(c4)CN(C4CCC(=O)NC4=O)C5=O)CC3)[nH]c2cc1Cl (stereo not shown) [Compound 71]"
measured_value = "100%"

[[record]]
molecule = "Cc1c(C(=O)N2CCC(c3ccc4c(c3F)CN(C3CCC(=O)NC3=O)C4=O)CC2)[nH]c2cc(N3CCOCC3)ccc12 (stereo not shown) [Compound 116]"
measured_value = "96%"

[[record]]
molecule = "Cc1c(C(=O)N2CCC(c3ccc4c(c3F)CN(C3CCC(=O)NC3=O)C4=O)CC2)[nH]c2cc(Cl)c(O)cc12 (stereo not shown) [Compound 115]"
measured_value = "100%"

[[record]]
molecule = "Cc1c(C(=O)N2CCC(c3ccc4c(c3F)CN(C3CCC(=O)NC3=O)C4=O)CC2)[nH]c2cc(Cl)ccc12 (stereo not shown) [Compound 91]"
measured_value = "100%"

[[record]]
molecule = "Cc1c(C(=O)N2CCC(c3ccc4c(c3)CN(C3CCC(=O)NC3=O)C4=O)CC2)[nH]c2cc([N+](=O)[O-])ccc12 (stereo not shown) [Compound 55]"
measured_value = "100%"

[[record]]
molecule = "Cc1c(C(=O)N2CCC(c3ccc4c(c3)CN(C3CCC(=O)NC3=O)C4=O)CC2)[nH]c2cc(Cl)c(O)cc12 (stereo not shown) [Compound 101]"
measured_value = "100%"

